# TEST_TARGET: furin, P09958;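 also: purified furin at 1:10 enzyme:substrate in 50 mM HEPES pH 7.5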
# Sequence (P09958 whole entry): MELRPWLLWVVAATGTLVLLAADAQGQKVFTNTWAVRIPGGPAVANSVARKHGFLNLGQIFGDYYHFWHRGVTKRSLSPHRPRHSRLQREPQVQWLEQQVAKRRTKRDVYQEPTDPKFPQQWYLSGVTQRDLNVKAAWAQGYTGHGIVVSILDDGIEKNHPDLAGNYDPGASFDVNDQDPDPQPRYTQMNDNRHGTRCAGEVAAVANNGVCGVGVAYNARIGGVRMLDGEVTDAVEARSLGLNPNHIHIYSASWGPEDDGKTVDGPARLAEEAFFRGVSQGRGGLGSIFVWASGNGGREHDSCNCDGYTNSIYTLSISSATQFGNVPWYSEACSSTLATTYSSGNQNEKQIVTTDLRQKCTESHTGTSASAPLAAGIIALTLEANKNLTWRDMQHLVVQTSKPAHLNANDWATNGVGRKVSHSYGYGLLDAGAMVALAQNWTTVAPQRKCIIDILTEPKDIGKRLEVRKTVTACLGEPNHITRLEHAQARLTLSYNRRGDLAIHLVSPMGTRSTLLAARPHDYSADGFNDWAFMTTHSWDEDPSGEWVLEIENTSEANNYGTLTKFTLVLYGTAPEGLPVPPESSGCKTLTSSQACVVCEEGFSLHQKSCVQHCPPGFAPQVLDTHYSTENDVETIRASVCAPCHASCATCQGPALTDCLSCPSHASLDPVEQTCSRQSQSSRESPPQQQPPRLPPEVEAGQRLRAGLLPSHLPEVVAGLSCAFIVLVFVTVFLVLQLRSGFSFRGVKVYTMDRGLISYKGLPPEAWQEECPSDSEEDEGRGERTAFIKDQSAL
# ASSAY_PROCEDURE: furin cleavage Z-score vs untreated control; higher = more cleavage, active = 3.5 or more, inactive = 1 or less, 8 variable residues between constant flanks
# PROTOCOL_CONDITIONS: 30 min
The other results are listed elsewhere or left out. The hit rate among all sequences tested is not known here.
Known furin cleavage Z-score of a selection of sequences

ENTRY_SEQUENCE | furin cleavage Z-score
CAERVTSTWVAGNASASA [HC2173] | -2.09
CARSKRQLRRAGNASASA [FS-2305] | 9.3
CAKRVYYLTRAGNASASA [HC1560] | -0.874
CAALENLVILAGNASASA [HC534] | -0.181

Where these numbers come from: the supplement of paper PMC3545927
